# Tested on: NCl-H460 cells
# measurement notes: In vitro cytotoxicity / cell growth inhibition, non-small cell lung cancer
# Format: cell-based
# condition summary: Homo sapiens, 48 hr, read-out: log10 G150 (converted)
# Method: The anti-proliferative activities of the aziridinylpolyamines obtained in Synthesis Examples 1-4 were assessed by determining log10 G150 values against human cancer cell lines using the screening strategy described by Boyd et al, Drug Devel. Res. 34:91-109 (1995). More specifically, the compounds were tested at a minimum of five concentrations at 10-fold dilutions using a 48 hr continuous exposure protocol. Each cell line shown in Table 1 below was inoculated onto microtiter plates. […]
Listing: GI50 of selected compounds
Lab book: enter the figure in µM, no units written.

Below are worked cases with known answers.
Summary for this compound, C(CCNCCCN1CC1)CNCCCN1CC1 [Synthesis Example 1, 1,12-Diaziridinyl-4,9-diazadodecane] : GI50 is 0.363

Summary for this compound, C(CNCCCN1CC1)CNCCCN1CC1 [Synthesis Example 2, 1,11-Diaziridinyl-4,8-diazaundecane] : GI50 is 2.95

Summary for this compound, CC(CCNCCCCNCCC(C)N1CC1)N1CC1 (stereo not shown) [Synthesis Example 3, 2,13-Diaziridinyl-5,10-diazatetradecane] : GI50 is 6.17

Now take the following compound into account.
Summary for this compound, CC1CN1CCCNCCCCNCCCN1CC1C (stereo not shown) [Synthesis Example 4] : GI50 is 9.12
